Attribution: ChEMBL document CHEMBL1130321

- ASSAY_TARGET: GABA-A receptor; anion channel
- TEST_SUMMARY: Ability to allosterically modulate the binding of [35S]TBPS to gamma-aminobutyric-acid A receptor in rat brain cortical P2 membranes.
- Assay type: cell membranes, Membrane
For each of the molecules below, state its IC50.

Q: Give the reported IC50 for this molecule. "CC(=O)[C@H]1CC[C@H]2[C@@H]3CC[C@H]4C[C@@](O)(CN(C)C)CC[C@]4(C)[C@H]3CC[C@]12C"
Ans: > 10 µM

Q: Identify the reported IC50 for the following entry. "CC(=O)[C@H]1CC[C@H]2[C@@H]3CC[C@H]4C[C@@](O)(CC(N)=O)CC[C@]4(C)[C@H]3CC[C@]12C"
Ans: > 10 µM

Q: Identify IC50 associated with the molecule "CSC[C@@]1(O)CC[C@@]2(C)[C@@H](CC[C@@H]3[C@@H]2CC[C@]2(C)[C@@H](C(C)=O)CC[C@@H]32)C1"
Ans: > 10 µM
